Measured corrected association response by item
Study system: T1, human 5T4ECDHis (mature protein of SEQ ID NO: 99) (human, UniProt Q13641 32-355)
T1 construct: ECD of human 5T4 (aa 1-355 of Uniprot Q13641) with C-terminal His tag; residues 1-31 are the signal peptide; also called ECD of human 5T4 with a C-terminal His tag
T1 sequence: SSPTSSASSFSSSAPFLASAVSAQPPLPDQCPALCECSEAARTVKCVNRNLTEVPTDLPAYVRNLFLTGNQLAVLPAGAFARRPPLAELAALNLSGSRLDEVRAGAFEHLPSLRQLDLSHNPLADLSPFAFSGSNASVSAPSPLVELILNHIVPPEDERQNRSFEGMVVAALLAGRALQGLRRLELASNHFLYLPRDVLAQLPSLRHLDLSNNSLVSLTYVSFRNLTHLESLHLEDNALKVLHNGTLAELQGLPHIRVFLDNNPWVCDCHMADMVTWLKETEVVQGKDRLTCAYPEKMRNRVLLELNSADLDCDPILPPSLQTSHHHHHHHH
Test: BLI cross-block; competitor (immobilised): IgG1-5T4-076-FEAR

Input IgG1-5T4-207-FEAR (antibody, V domains shown, Monospecific, bivalent IgG1 FEAR) VH: QVQLQQWGAGLLKPSETLSLTCAVYGGSFSGYYWTWIRQPPGKGLEWIGEIDHSESTNYNPSLKSRVTISVDTSKNQFSLKLSSVTAADTAVYYCAGWFGELYHYYYGMDVWGQGTTVTVSS VL: EIVLTQSPATLSLSPGERATLSCRASQSVSSYLAWYQQKPGQAPRLLIYDASNRATGIPARFSGSGSGTDFTLTISSLEPEDFAVYYCQQRSNWPLTFGGGTKVEIKR , output reported corrected association response.
0.05 nm

Supply measured corrected association response of IgG1-5T4-A1-F405L (antibody, V domains shown, Variable region of A1 of WO2007106744 in a human IgG1 backbone with F405L; also called surrogate A1 antibody) VH: QIQLVQSGPELKKPGETVKISCKASGYTFTNFGMNWVKQGPGEGLKWMGWINTNTGEPRYAEEFKGRFAFSLETTASTAYLQINNLKNEDTATYFCARDWDGAYFFDYWGQGTTLTVSS VL: SIVMTQTPKFLLVSAGDRVTITCKASQSVSNDVAWYQQKPGQSPKLLINFATNRYTGVPNRFTGSGYGTDFTFTISTVQAEDLALYFCQQDYSSPWTFGGGTKLEIK in your reply.
0.04 nm

// fetch corrected association response given entry IgG1-5T4-085-FEAR (antibody, V domains shown, Monospecific, bivalent human IgG1 kappa with L234F, L235E, D265A, K409R (FEAR)) VH: EVQLLESGGGLVQPGGSLRLSCAASGFTFSSYAMSWVRQAPGKGLEWVSAISGSGGSTYNADSVKGRFTIFRDNSKNTLYLHMNSLRAEDTAVYYCARDPGYNNVEYLDHWGQGTLVTVSS VL: AIQLTQSPSSLSASVGDRVTITCRASQGISSALAWYQQKPGKAPKLLIYDASSLESGVPSRFSGSGSGTDFTLTISSLQPEDFATYYCQQFNSYPLTFGGGTKVEIK
-0.02 nm

Supply measured corrected association response of IgG1-5T4-A3-F405L (antibody, V domains shown, Variable region of A3 of WO2007106744 in a human IgG1 backbone with F405L; also called surrogate A3 antibody) VH: EVQLVESGGGLVQPKGSLKLSCAASGFTFNTYAMNWVRQAPGKGLEWVARIRSKSNNYATYYADSVKDRFTISRDDSQSMLYLQMNNLKTEDTAMYYCVRQWDYDVRAMNYWGQGTSVTVSS VL: DIVMTQSHIFMSTSVGDRVSITCKASQDVDTAVAWYQQKPGQSPKLLIYWASTRLTGVPDRFTGSGSGTDFTLTISNVQSEDLADYFCQQYSSYPYTFGGGTKLEIK in your reply.
0 nm
